- Test system: IL-6
- ASSAY: Cytokine production induced by sample formulations: IL-6
- Assay type: in vivo
- ASSAY_CONTEXT: Table 17-4; mice, i.v., 0.5 mpk, 6 hours; in pg/mL (unit assumed)
Reported IL-6 is given for each of the following compounds.
Would you mind answering with just the numeric figure?

Reference set (2 entries):
CCCCC/C=C\C/C=C\CCCCCCCCN(CCO)CCCCCCCCC [Compound 17-3]    6.97
CCCCCCCCCCCCN(CCCO)CCCCCCCCCCCC [Compound 17-12, 3-(Didodecylamino)propan-1-ol]    83.1

# next compound below
Quick check: IL-6 of CCCCC/C=C\C/C=C\CCCCCCCCN(CCO)CCCCCCCCCCCCCCCCCC [Compound 17-6] ? 25.0

###

- ASSAY: Particle size and polydispersity index of nanoparticle compositions (Zetasizer Nano ZS)
- Format: physicochemical
- ASSAY_CONTEXT: Table 1; rows without footnote mark
MEASURE: PDI
Would you mind answering with just the numeric figure?

CCCCC/C=C\CCCCCN(CCCCC/C=C\CCCCC)CCN1CCN(CCN(CCCCCCCCCCCC)CCN(CCCCCCCCCCCC)CCCCCCCCCCCC)CC1 [Compound 25]    0.186
CCCCCCCCCCCCN(CCCCCCCCCCCC)CCN(CCCCCCCCCCCC)CCN1CCN(CCN(CCCCCCCCCCCC)CCCCCC(=O)OCCCCC)CC1 [Compound 12]    0.096
CCCCCCCCCCCCN(CCCCCCCCCCCC)CCN(CCCCCCCCC)CC(=O)N1CCN(C(=O)CN(CCCCCCCCC)CCCCCCCCC)CC1 [Compound 6]    0.160
CCCCCCCCCN(CCCCCCCCC)CCN(CCCCCCCCC)CC(=O)N1CC2CC1CN2C(=O)CN(CCCCCCCCC)CCCCCCCCC (stereo not drawn) [Compound 42]    0.190
CCCCCCCCCCCCCCN(CCCCCCCCCCCCCC)CCN(CCCCCCCCCCCCCC)CCN1CCN(CCN(CCCCCCCCCCCC)CCCCCC(=O)OCCCCC)CC1 [Compound 13]    0.080

Quick check: PDI of CCCCCCCCCCCCN(CCCCCCCCCCCC)CCN(CCCCCCCCCCCC)CCN1CCN(CCN(CCCCCCCCC)CCCCCCCCC)CC1 [Compound 23] ? 0.058

What would you report for CCCCCCCCCCCCCCN(CCCCCCCCCCCCCC)CCN(CCCCCCCCCCCCCC)CCN1CCN(CCN(CCCCCCCCC)CCCCCCCCC)CC1 [Compound 30] ? 0.110

What would you report for CCCCCCCC/C=C\CCCCCCCCN(CCCCCCCC/C=C\CCCCCCCC)CCN1CCN(CCN(CCCCCCCCCCCC)CCN(CCCCCCCCCCCC)CCCCCCCCCCCC)CC1 [Compound 28] ? 0.099

What would you report for CCCCCCCCCN(CCCCCCCCC)CCN(CCCCCCCC(=O)OC)CC(=O)N1CCN(C(=O)CN(CCCCCCCCC)CCCCCCCCC)CC1 [Compound 47] ? 0.180

What would you report for CCCCCCCCCN(CCCCCCCCC)CCN(CCCCCCCCC)CC(=O)N1CCN(C(=O)CN(CCCCCCCCC)CCCC(=O)OCCCCC)CC1 [Compound 45] ? 0.200

What would you report for CCCCCCCCCCCCN(CCCCCCCCCCCC)CCN(CCCCCCCCCCCC)CCN1CCN(CCN(CCCCCC(=O)OCCCCC)CCCCCC(=O)OCCCCC)CC1 [Compound 14] ? 0.008

What would you report for CCCCCCCCCN(CCCCCCCCC)CCN(CCCCCCCCC)CC(=O)N1CCN(C(=O)CN(CCCCCCCCC)CCCCCCCC(=O)OC)CC1 [Compound 44] ? 0.190

###

Reported pKa is given for each of the following molecules.
- ASSAY: pKa of nanoparticle compositions
- Format: physicochemical
- ASSAY_CONTEXT: Table 1; rows without footnote mark

Reference set (2 entries):
CCCCCCCCCN(CCCCCCCCC)CCN(CCCCCCCCC)CCC1CCN(C(=O)CN(CCCCCCCCC)CCCCCCCCC)CC1 [Compound 50]    5.55
CCCCCCCC/C=C\CCCCCCCCN(CCCCCCCC/C=C\CCCCCCCC)CCN(CCCCCCCC/C=C\CCCCCCCC)CCN1CCN(CCN(CCCCCCCC/C=C\CCCCCCCC)CCCCCCCC/C=C\CCCCCCCC)CC1 [Formula IV]    6.25

# next molecule below
Quick check: pKa of CCCCCCCCCCCCN(CCCCCCCCCCCC)CCN(CCCCCCCCCCCC)CCN1CCN(CCN(CCCCCCCCCCCC)CCCCCC(=O)OCCCCC)CC1 [Compound 12] ? 5.44

###

- Tested on: luciferase (Luc) mRNA expression
- ASSAY: Expression of Luc induced by sample formulations, whole-body bioluminescence after intravenous administration
- Type: in vivo
- ASSAY_CONTEXT: Table 17-2; mice, i.v., 0.5 mg/kg, 24 hours
- Protocol: In order to monitor how effectively various nanoparticle compositions deliver therapeutic and/or prophylactic agents to targeted cells, different nanoparticle compositions including a particular therapeutic and/or prophylactic agent (for example, a modified or naturally occurring RNA such as an mRNA) are prepared and administered to rodent populations. […] The efficacy of the nanoparticle compositions presented in Tables 1, 1a, 17-1, 19-1, 20-1 and 21-1 was evaluated with a bioluminescence study. […]
MEASURE: Total Flux 24 hours

Quick check: Total Flux 24 hours of CCCCCCCCCCCCN(CCCCO)CCCCCCCCCCCC ? 7.95E+05

###

Reported % remaining dose in liver is given for each of the following molecules.
- ASSAY: Lipid levels in liver and spleen 48 hours after administration
- Format: in vivo, rats
- ASSAY_CONTEXT: liver, 48 hours after administration
Use % as the unit, but write only the number.

Reference set (2 entries):
CCCCCCCCCCCCN(CCCCCCCCCCCC)CCN(CCCCCCCCCCCC)CCN1CCN(CCN(CCCCCCCCCCCC)CCCCCC(=O)OCCCCC)CC1    23.8
CCCCCCCCCCCCN(CCCCCCCCCCCC)CCN(CCCCCCCCCCCC)CCN1CCN(CCN(CCCCCC(=O)OCCCCC)CCCCCC(=O)OCCCCC)CC1    5.54

# next molecule below
Quick check: % remaining dose in liver of CCCCCCCCCCCCN(CCCCCCCCCCCC)CCN(CCCCCCCCCCCC)CCN1CCN(CCN(CCCCCCCCCCCC)CCCCCCCCCCCC(=O)OC)CC1 ? 4.22

###

Reported AUC (1 mpk) is given for each of the following compounds.
- Test system: hEPO mRNA expression
- ASSAY: Expression of hEPO in rats after intravenous administration
- Type: in vivo
- ASSAY_CONTEXT: hEPO expression in S.D. rats, 1 mpk
- Protocol: PBS (phosphate buffered saline) is used as control. Formulations were prepared according to Table 5 and included mRNA encoding hEPO. […] After the 48 hour time point, livers and spleens were harvested and frozen.

Reference set (3 entries):
CCCCCCCCCN(CCCCCCCCC)CCN(CCCCCCCCC)CC(=O)N1CCN(C(=O)CN(CCCCCCCCC)CCCC(=O)OCCCCC)CC1    2.00E+08
CCCCCCCCCN(CCCCCCCCC)CCC1CCN(C(=O)CN(CCCCCCCCC)CCN(CCCCCCCCC)CCCCCCCCC)CC1    1.44E+08
CCCCCC=CCC=CCCCCCCCCC(CCCCCCCCC=CCC=CCCCCC)OC(=O)CCCN(C)C (stereo not shown) [MC3, reference compound]    1.17E+08

# next compound below
Quick check: AUC (1 mpk) of CCCCCCCCCN(CCCCCCCCC)CCN(CCCCCCCCC)CC(=O)N1CCN(C(=O)CN(CCCCCCCCC)CCCCCCCCC)CC1 ? 6.79E+07

###

- ASSAY: Particle size and polydispersity index of nanoparticle compositions (Zetasizer Nano ZS)
- Format: physicochemical
- ASSAY_CONTEXT: Table 5; hEPO mRNA; 40:20:38.5:1.5 Lipid:DOPE:Chol:PEG-DMG
Reported PDI is given for each of the following compounds.
Would you mind answering with just the numeric figure?

Reference set (6 entries):
CCCCCCCCCCCCN(CCCCCCCCCCCC)CCN(CCCCCCCCCCCC)CCN1CCN(CCN(CCCCCCCCC)CCCCCCCCC)CC1    0.16
CCCCCCCCCCCCCCN(CCCCCCCCCCCCCC)CCN1CCN(CCN(CCCCCCCCC)CCN(CCCCCCCCC)CCCCCCCCC)CC1    0.14
CCCCCCCCCCCCN(CCCCCCCCCCCC)CCN(CCCCCCCCCCCC)CCN1CCN(CCN(CCCCCC(=O)OCCCCC)CCCCCC(=O)OCCCCC)CC1    0.14
CCCCCCCCCCCCN(CCCCCCCCCCCC)CCN(CCCCCCCCCCCC)CCN1CCN(CCN(CCCCCCCC)CCCCCCCC)CC1    0.13
CCCCCCCCCCCCN(CCCCCCCCCCCC)CCN(CCCCCCCCCCCC)CCN1CCN(CCN(CCCCCCCCCCCC)CCCCCC(=O)OCCCCC)CC1    0.13
CCCCCCCCCCCCN(CCCCCCCCCCCC)CCN(CCCCCCCCCCCC)CCN1CCN(CCN(CCCCCCCCCCCC)CCCCCCCCCCCC(=O)OC)CC1    0.12

Quick check: PDI of CCCCCCCCCCCCN(CCCCCCCCCCCC)CCN(CCCCCCCCCCCC)CCN1CCN(CCN(CCCCCCCCCCCC(=O)OC)CCCCCCCCCCCC(=O)OC)CC1 ? 0.14

From: patent US10195156B2
